# Tested on: 435261-313-R-J1-PDC complex spheroid viability;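 note: spheroids exposed to the agents for seven days before readout; percent of vehicle control viability with DMSO wells as 100%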
# ASSAY_EXPLANATION: Anticancer human tumor 435261-313-R-J1-PDC patient-derived colon adenocarcinoma cell line growth inhibition [GQUAD]
# CONDITIONS: second compound 3.16 µM; first compound 1 µM; active compounds read low
READOUT_NAME: viability, T/C (%)
All answers are understood in %, so give the number only.

COc1ncnc(C2CC2)c1-c1ncc2cnn(Cc3ccc(-c4nc(C(F)(F)F)cn4C(C)C)cc3)c2n1 + Cc1cnc(CNC(=O)c2c(=O)c3ccc(N4CCCN(C)CC4)nc3n3c2sc2ccccc23)cn1 : 8.94
COc1cccc2c1C(=O)c1c(O)c3c(c(O)c1C2=O)CC(O)(C(=O)CO)CC3OC1CC(N)C(O)C(C)O1 (stereo not given) + Cc1cnc(CNC(=O)c2c(=O)c3ccc(N4CCCN(C)CC4)nc3n3c2sc2ccccc23)cn1 : 0.1

Provide only the value of recorded viability, T/C for C#Cc1c(F)ccc2cc(O)cc(-c3ncc4c(N5CC6CCC(C5)N6)nc(OCC56CCCN5CC(F)C6)nc4c3F)c12 (stereo not given) + Cc1[nH]c2ccc(F)cc2c1-c1nc2c3cccnc3c3ncccc3c2[nH]1
28.4

Answer with reported viability, T/C of C=CC(=O)N1CCN(c2nc(=O)n(-c3c(C)ccnc3C(C)C)c3nc(-c4c(O)cccc4F)c(F)cc23)C(C)C1 (stereo not given) + CN(C)c1ccc(Nc2c3ccc(NC(=O)CCN4CCCC4)cc3nc3cc(NC(=O)CCN4CCCC4)ccc23)cc1
113

For CC(C)n1c(=O)n(C)c2cnc3cc(F)c(-c4ccc(OCCCN5CCCCC5)nc4)cc3c21 + CN(C)c1ccc(Nc2c3ccc(NC(=O)CCN4CCCC4)cc3nc3cc(NC(=O)CCN4CCCC4)ccc23)cc1 , write its viability, T/C.
30.2
